Reference source: ChEMBL document CHEMBL3734701

System: Streptococcus pneumoniae
Test: Antibacterial activity against erythromycin-resistant Streptococcus pneumoniae A22072 expressing mefA gene by broth microdilution method
Assay type: functional
Property: log10 of MIC (log10 of the value in µg/mL)

{"Compound": "CC[C@H]1OC(=O)[C@@H](C)[C@H](O[C@H]2C[C@@](C)(OC)[C@@H](OC(=O)NNC(=O)/C=C/c3ccc(OC)c(OC)c3)[C@H](C)O2)[C@@H](C)[C@H](O[C@H]2O[C@@H](C)C[C@@H](N(C)C)[C@@H]2O)[C@@](C)(O)C[C@H](C)CN(C)[C@@H](C)[C@@H]2OC(=O)O[C@@]12C", "Target or test system": "Streptococcus pneumoniae", "log10 of MIC": -0.30}
{"Compound": "CC[C@@H]1OC(=O)[C@H](C)[C@@H](O[C@H]2C[C@@](C)(OC)[C@@H](OC(=O)NNC(=O)/C=C/c3ccco3)[C@H](C)O2)[C@@H](C)[C@@H](O[C@@H]2O[C@H](C)C[C@H](N(C)C)[C@H]2O)[C@](C)(O)C[C@@H](C)CN(C)[C@H](C)[C@@H](OC(=O)NCc2ccccc2)[C@]1(C)O", "Target or test system": "Streptococcus pneumoniae", "log10 of MIC": -0.92}
{"Compound": "CC[C@H]1OC(=O)[C@@H](C)[C@H](O[C@H]2C[C@@](C)(OC)[C@@H](OC(=O)NNC(=O)/C=C/c3ccc(Br)cc3)[C@H](C)O2)[C@@H](C)[C@H](O[C@H]2O[C@@H](C)C[C@@H](N(C)C)[C@@H]2O)[C@@](C)(O)C[C@H](C)CN(C)[C@@H](C)[C@@H]2OC(=O)O[C@@]12C", "Target or test system": "Streptococcus pneumoniae", "log10 of MIC": -0.60}
{"Compound": "CC[C@@H]1OC(=O)[C@H](C)[C@@H](O[C@H]2C[C@@](C)(OC)[C@@H](OC(=O)NNC(=O)/C=C/c3ccccc3OC)[C@H](C)O2)[C@@H](C)[C@@H](O[C@@H]2O[C@H](C)C[C@H](N(C)C)[C@H]2O)[C@](C)(O)C[C@@H](C)CN(C)[C@H](C)[C@@H](OC(=O)NCc2ccccc2)[C@]1(C)O", "Target or test system": "Streptococcus pneumoniae", "log10 of MIC": -0.30}
{"Compound": "CC[C@H]1OC(=O)[C@@H](C)[C@H](O[C@H]2C[C@@](C)(OC)[C@@H](OC(=O)NNC(=O)/C=C/c3ccco3)[C@H](C)O2)[C@@H](C)[C@H](O[C@H]2O[C@@H](C)C[C@@H](N(C)C)[C@@H]2O)[C@@](C)(O)C[C@H](C)CN(C)[C@@H](C)[C@@H]2OC(=O)O[C@@]12C", "Target or test system": "Streptococcus pneumoniae", "log10 of MIC": 0.00}
{"Compound": "CC[C@H]1OC(=O)[C@@H](C)[C@H](O[C@@H]2C[C@](C)(OC)[C@H](OC(=O)NNC(=O)/C=C/c3ccc(Cl)cc3)[C@@H](C)O2)[C@H](C)[C@H](O[C@H]2O[C@@H](C)C[C@@H](N(C)C)[C@@H]2O)[C@@](C)(O)C[C@H](C)CN(C)[C@@H](C)[C@H](OC(=O)NCc2ccccc2)[C@@]1(C)O", "Target or test system": "Streptococcus pneumoniae", "log10 of MIC": -0.60}
{"Compound": "CC[C@H]1OC(=O)[C@@H](C)[C@H](O[C@H]2C[C@@](C)(OC)[C@@H](OC(=O)NNC(=O)/C=C/c3ccccc3F)[C@H](C)O2)[C@@H](C)[C@H](O[C@H]2O[C@@H](C)C[C@@H](N(C)C)[C@@H]2O)[C@@](C)(O)C[C@H](C)CN(C)[C@@H](C)[C@@H]2OC(=O)O[C@@]12C", "Target or test system": "Streptococcus pneumoniae", "log10 of MIC": 0.30}
{"Compound": "CC[C@H]1OC(=O)[C@H](C)[C@@H](O[C@H]2C[C@@](C)(OC)[C@@H](O)[C@H](C)O2)[C@H](C)[C@@H](O[C@@H]2O[C@H](C)C[C@H](N(C)C)[C@H]2O)[C@](C)(O)C[C@@H](C)C(=O)[C@H](C)[C@@H](O)[C@]1(C)O [ERYTHROMYCIN]", "Target or test system": "Streptococcus pneumoniae", "log10 of MIC": 0.90}
{"Compound": "CC[C@H]1OC(=O)[C@@H](C)[C@H](O[C@H]2C[C@@](C)(OC)[C@@H](OC(=O)NNC(=O)/C=C/c3cc(OC)c(OC)c(OC)c3)[C@H](C)O2)[C@@H](C)[C@H](O[C@H]2O[C@@H](C)C[C@@H](N(C)C)[C@@H]2O)[C@@](C)(O)C[C@H](C)CN(C)[C@@H](C)[C@@H]2OC(=O)O[C@@]12C", "Target or test system": "Streptococcus pneumoniae", "log10 of MIC": -0.30}
{"Compound": "CC[C@H]1OC(=O)[C@@H](C)[C@H](O[C@@H]2C[C@](C)(OC)[C@H](OC(=O)NNC(=O)/C=C/c3ccc(OC)c(OC)c3)[C@@H](C)O2)[C@H](C)[C@H](O[C@H]2O[C@@H](C)C[C@@H](N(C)C)[C@@H]2O)[C@@](C)(O)C[C@H](C)CN(C)[C@@H](C)[C@H](OC(=O)NCc2ccc(OC)cc2)[C@@]1(C)O", "Target or test system": "Streptococcus pneumoniae", "log10 of MIC": -0.60}
{"Compound": "CC[C@@H]1OC(=O)[C@H](C)[C@@H](O[C@H]2C[C@@](C)(OC)[C@@H](OC(=O)NNC(=O)/C=C/c3cccs3)[C@H](C)O2)[C@@H](C)[C@@H](O[C@@H]2O[C@H](C)C[C@H](N(C)C)[C@H]2O)[C@](C)(O)C[C@@H](C)CN(C)[C@H](C)[C@@H](OC(=O)NCc2ccccc2)[C@]1(C)O", "Target or test system": "Streptococcus pneumoniae", "log10 of MIC": -1.22}
{"Compound": "CC[C@H]1OC(=O)[C@@H](C)[C@H](O[C@H]2C[C@@](C)(OC)[C@@H](OC(=O)NNC(=O)/C=C/c3cccs3)[C@H](C)O2)[C@@H](C)[C@H](O[C@H]2O[C@@H](C)C[C@@H](N(C)C)[C@@H]2O)[C@@](C)(O)C[C@H](C)CN(C)[C@@H](C)[C@@H]2OC(=O)O[C@@]12C", "Target or test system": "Streptococcus pneumoniae", "log10 of MIC": -1.82}
{"Compound": "CC[C@H]1OC(=O)[C@@H](C)[C@H](O[C@H]2C[C@@](C)(OC)[C@@H](OC(=O)NNC(=O)/C=C/c3ccccc3OC)[C@H](C)O2)[C@@H](C)[C@H](O[C@H]2O[C@@H](C)C[C@@H](N(C)C)[C@@H]2O)[C@@](C)(O)C[C@H](C)CN(C)[C@@H](C)[C@@H]2OC(=O)O[C@@]12C", "Target or test system": "Streptococcus pneumoniae", "log10 of MIC": -0.60}
